target: CDK6/cycD3 (Homo sapiens, UniProt Q00534); assay: Determination of CDK activity (Caliper mobility shift, FAM-P8 peptide): CDK6; assay type: biochemical; details: CDK6/cycD3; read-out: CDK6 enzymatic inhibitory activity (IC50)
Sequence (Q00534 whole entry): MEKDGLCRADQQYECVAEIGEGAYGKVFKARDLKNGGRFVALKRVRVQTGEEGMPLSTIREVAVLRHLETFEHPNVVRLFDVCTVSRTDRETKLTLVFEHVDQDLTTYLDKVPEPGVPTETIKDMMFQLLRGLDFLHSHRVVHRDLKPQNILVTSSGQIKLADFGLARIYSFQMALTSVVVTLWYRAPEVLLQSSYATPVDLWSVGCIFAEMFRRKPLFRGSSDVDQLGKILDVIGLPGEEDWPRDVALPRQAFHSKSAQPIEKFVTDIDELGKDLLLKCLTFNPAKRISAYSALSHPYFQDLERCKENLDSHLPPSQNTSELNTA
Sequence (P30281 whole entry partner): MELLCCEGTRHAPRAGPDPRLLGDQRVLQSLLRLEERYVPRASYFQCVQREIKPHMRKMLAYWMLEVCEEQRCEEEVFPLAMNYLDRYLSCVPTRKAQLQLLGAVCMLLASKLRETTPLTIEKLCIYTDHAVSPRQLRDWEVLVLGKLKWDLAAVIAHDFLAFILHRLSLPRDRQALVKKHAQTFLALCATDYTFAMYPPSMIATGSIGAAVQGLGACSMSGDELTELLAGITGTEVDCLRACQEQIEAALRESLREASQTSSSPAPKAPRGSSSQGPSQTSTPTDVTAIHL
pIC50: −log10 of the molar value.
observation.type: pIC50

Previously resolved entries follow.
>>> val("Cc1nc2c(F)cc(-c3nc(Nc4ccc([C@H](C)C5CCN(C)CC5)cn4)ncc3F)cc2n1C(C)C (single isomer, unassigned)")
"> 7.00"
>>> val("Cc1nc2c(F)cc(-c3nc(Nc4ccc([C@H](C)C5CCN(CC(F)F)CC5)cn4)ncc3F)cc2n1C(C)C")
"> 7.00"

Required: pIC50, one value per molecule below.
1. CCN1CCC(C(O)c2ccc(Nc3ncc(F)c(-c4cc(F)c5nc(C)n(C(C)C)c5c4)n3)nc2)CC1 (single isomer, unassigned) [Example 41]
2. CC[C@H](c1ccc(Nc2ncc(F)c(-c3cc(F)c4nc(C)n(C(C)C)c4c3)n2)nc1)N1CCNCC1
3. Cc1nc2c(F)cc(-c3nc(Nc4ccc(C=C5CCN(CCO)CC5)cn4)ncc3F)cc2n1C(C)C
4. CCC(c1ccc(Nc2ncc(F)c(-c3cc(F)c4nc(C)n(C(C)C)c4c3)n2)nc1)N1CCN(CC)CC1 (single isomer, unassigned) [Example 3]

> 7.00
5.00 to 6.00
> 7.00
6.30 to 7.00

###

Target: CDK1/CyclinB (Homo sapiens, UniProt P06493)
Sequence (P06493 whole entry): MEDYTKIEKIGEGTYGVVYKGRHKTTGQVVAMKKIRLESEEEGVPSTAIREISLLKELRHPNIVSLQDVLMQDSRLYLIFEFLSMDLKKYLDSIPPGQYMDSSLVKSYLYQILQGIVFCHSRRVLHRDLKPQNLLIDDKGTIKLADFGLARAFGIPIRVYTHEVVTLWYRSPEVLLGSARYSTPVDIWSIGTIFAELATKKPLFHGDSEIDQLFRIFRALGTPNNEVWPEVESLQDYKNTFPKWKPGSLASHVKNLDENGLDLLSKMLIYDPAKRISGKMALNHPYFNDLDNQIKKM
Sequence (P14635 whole entry partner): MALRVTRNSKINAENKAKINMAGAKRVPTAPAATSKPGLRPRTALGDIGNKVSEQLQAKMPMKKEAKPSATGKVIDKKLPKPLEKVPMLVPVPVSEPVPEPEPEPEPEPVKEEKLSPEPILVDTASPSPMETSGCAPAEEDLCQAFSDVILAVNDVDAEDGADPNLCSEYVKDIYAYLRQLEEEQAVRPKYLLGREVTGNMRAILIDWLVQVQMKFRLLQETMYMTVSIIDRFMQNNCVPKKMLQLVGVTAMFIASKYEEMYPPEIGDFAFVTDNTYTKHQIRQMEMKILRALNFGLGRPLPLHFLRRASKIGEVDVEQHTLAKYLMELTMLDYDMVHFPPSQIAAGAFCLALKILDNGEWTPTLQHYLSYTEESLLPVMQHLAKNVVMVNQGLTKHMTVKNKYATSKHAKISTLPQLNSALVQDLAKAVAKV
Assay: Determination of CDK activity (Caliper mobility shift, FAM-P8 peptide): CDK1
Assay type: biochemical
Conditions: read-out: CDK1 enzymatic inhibitory activity (IC50)
Description: In vitro, CDK (CDK4, CDK6, CDK1, CDK2, CDK7, and CDK9) kinase activity was tested by the following method. 1. Prepared 1× Kinase Buffer and Stop Buffer for the Test 1) 1× Kinase Base Buffer (CDK1, 2, and 6). 1) Diluted the compound to 50 times of the maximum concentration with 100% DMSO. For example, if the desired maximum inhibitory concentration is 10 μM, then a DMSO solution of 500 μM concentration is required. […] 5. Caliper Reading: Collect Data on Caliper. […]
Structures can show the parent of a compound that is named as a salt.
observation.type: IC50

Bench note, CDK1/CyclinB (Homo sapiens, UniProt P06493): Cc1nc2c(F)cc(-c3nc(Nc4ccc(C(O)C5CCNCC5)cn4)ncc3F)cc2n1C(C)C (stereo not shown) [Example 42, hydrochloride] , IC50 reads 100 to 500 nM

###

target: CDK7/CyclinH/MAT1 (Homo sapiens); experiment: Determination of CDK activity (Caliper mobility shift, FAM-P8 peptide): CDK7; format: biochemical; conditions: CDK7/CyclinH/MAT1; read-out: CDK7 enzymatic inhibitory activity (IC50)
Sequence (P50613 whole entry): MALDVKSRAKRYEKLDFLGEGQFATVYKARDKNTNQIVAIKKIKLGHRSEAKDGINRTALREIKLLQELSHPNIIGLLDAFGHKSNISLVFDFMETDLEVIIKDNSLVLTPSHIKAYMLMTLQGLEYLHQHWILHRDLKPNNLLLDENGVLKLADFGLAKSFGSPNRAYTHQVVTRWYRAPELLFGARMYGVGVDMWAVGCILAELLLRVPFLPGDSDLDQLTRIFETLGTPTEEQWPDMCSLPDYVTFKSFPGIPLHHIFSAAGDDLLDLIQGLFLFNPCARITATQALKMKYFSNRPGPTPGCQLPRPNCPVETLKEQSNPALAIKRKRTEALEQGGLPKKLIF
Sequence (P51946 whole entry partner): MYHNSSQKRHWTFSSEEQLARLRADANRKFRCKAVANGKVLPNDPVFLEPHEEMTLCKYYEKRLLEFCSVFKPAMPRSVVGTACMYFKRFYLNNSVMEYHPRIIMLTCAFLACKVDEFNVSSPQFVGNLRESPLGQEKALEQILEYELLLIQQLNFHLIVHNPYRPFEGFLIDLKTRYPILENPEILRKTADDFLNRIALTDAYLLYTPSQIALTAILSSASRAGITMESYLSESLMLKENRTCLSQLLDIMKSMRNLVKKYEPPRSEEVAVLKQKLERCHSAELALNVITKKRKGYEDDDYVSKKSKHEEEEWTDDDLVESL
Sequence (P51948 whole entry partner): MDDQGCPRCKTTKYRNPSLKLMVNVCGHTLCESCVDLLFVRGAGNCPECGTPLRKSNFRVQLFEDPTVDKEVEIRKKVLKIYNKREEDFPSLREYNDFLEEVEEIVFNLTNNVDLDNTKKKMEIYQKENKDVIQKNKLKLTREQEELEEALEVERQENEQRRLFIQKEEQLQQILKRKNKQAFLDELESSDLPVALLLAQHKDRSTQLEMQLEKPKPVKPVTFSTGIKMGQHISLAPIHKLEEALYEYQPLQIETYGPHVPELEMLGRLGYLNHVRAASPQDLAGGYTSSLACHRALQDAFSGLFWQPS
Would you mind telling me the reported IC50 of each entry?

>>> val("CCC(c1ccc(Nc2ncc(F)c(-c3cc(F)c4nc(C)n(C(C)C)c4c3)n2)nc1)N1CCN(CC)CC1 (single isomer, unassigned) [Example 2]")
"1000 to 10000 nM"
>>> val("Cc1nc2c(F)cc(-c3nc(Nc4ccc([C@H](C)C5CCN(CC(F)F)CC5)cn4)ncc3F)cc2n1C(C)C")
"1000 to 10000 nM"

Required: IC50, one value per compound below.
1. Cc1nc2c(F)cc(-c3nc(Nc4ccc([C@H](C)C5CCN(C6CC6)CC5)cn4)ncc3F)cc2n1C(C)C
2. Cc1nc2c(F)cc(-c3nc(Nc4ccc([C@H](O)C5CCNCC5)cn4)ncc3F)cc2n1C(C)C

1000 to 10000 nM
500 to 1000 nM

Required: IC50, one value per compound below.
1. CC[C@H](c1ccc(Nc2ncc(F)c(-c3cc(F)c4nc(C)n(C(C)C)c4c3)n2)nc1)C1CCN(CC)CC1
2. CCN1CCC(C(O)c2ccc(Nc3ncc(F)c(-c4cc(F)c5nc(C)n(C(C)C)c5c4)n3)nc2)CC1 (racemic) [Example 39]

1000 to 10000 nM
100 to 500 nM

IC50 in this record for CC[C@H](c1ccc(Nc2ncc(F)c(-c3cc(F)c4nc(C)n(C(C)C)c4c3)n2)nc1)N1CCNCC1 : 1000 to 10000 nM

###

Would you mind telling me the reported IC50 of each entry?
target: CDK1/CyclinB (Homo sapiens); assay: Determination of CDK activity (Caliper mobility shift, FAM-P8 peptide): CDK1; assay type: biochemical; details: CDK1/CyclinB; read-out: CDK1 enzymatic inhibitory activity (IC50)

Required: IC50, one value per compound below.
1. CC[C@@H](c1ccc(Nc2ncc(F)c(-c3cc(F)c4nc(C)n(C(C)C)c4c3)n2)nc1)N1CCNCC1
2. CCN1CCC(C(C)c2ccc(Nc3ncc(F)c(-c4cc(F)c5nc(C)n(C(C)C)c5c4)n3)nc2)CC1 (racemic) [Example 16]
3. COCCN1CCC([C@@H](C)c2ccc(Nc3ncc(F)c(-c4cc(F)c5nc(C)n(C(C)C)c5c4)n3)nc2)CC1 (single isomer, unassigned)
4. CC[C@@H](c1ccc(Nc2ncc(F)c(-c3cc(F)c4nc(C)n(C(C)C)c4c3)n2)nc1)C1CCN(CC)CC1
5. Cc1nc2c(F)cc(-c3nc(Nc4ccc(C=C5CCN(CC(F)F)CC5)cn4)ncc3F)cc2n1C(C)C
6. Cc1nc2c(F)cc(-c3nc(Nc4ccc(C(C)C5CCNCC5)cn4)ncc3F)cc2n1C(C)C (single isomer, unassigned) [Example 20]
7. Cc1nc2c(F)cc(-c3nc(Nc4ccc(C=C5CCN(C)CC5)cn4)ncc3F)cc2n1C(C)C
8. Cc1nc2c(F)cc(-c3nc(Nc4ccc(C=C5CCN(C(C)C)CC5)cn4)ncc3F)cc2n1C(C)C

["10000 to 100000 nM", "100 to 500 nM", "100 to 500 nM", "500 to 1000 nM", "100 to 500 nM", "500 to 1000 nM", "500 to 1000 nM", "1000 to 10000 nM"]

Required: IC50, one value per compound below.
1. Cc1nc2c(F)cc(-c3nc(Nc4ccc([C@@H](O)C5CCN(C)CC5)cn4)ncc3F)cc2n1C(C)C
2. Cc1nc2c(F)cc(-c3nc(Nc4ccc([C@H](C)C5CCN(CC(F)F)CC5)cn4)ncc3F)cc2n1C(C)C
3. Cc1nc2c(F)cc(-c3nc(Nc4ccc([C@@H](C)C5CCN(C6CC6)CC5)cn4)ncc3F)cc2n1C(C)C

< 100 nM
100 to 500 nM
500 to 1000 nM

Required: IC50, one value per compound below.
1. Cc1nc2c(F)cc(-c3nc(Nc4ccc(C=C5CCN(CC(F)(F)F)CC5)cn4)ncc3F)cc2n1C(C)C
2. CCN1CCC(C(OC(C)=O)c2ccc(Nc3ncc(F)c(-c4cc(F)c5nc(C)n(C(C)C)c5c4)n3)nc2)CC1 (single isomer, unassigned) [Example 72]
3. Cc1nc2c(F)cc(-c3nc(Nc4ccc(C(C)C5CCNCC5)cn4)ncc3F)cc2n1C(C)C (single isomer, unassigned) [Example 19]
4. CC(=C1CCN(C)CC1)c1ccc(Nc2ncc(F)c(-c3cc(F)c4nc(C)n(C(C)C)c4c3)n2)nc1
5. Cc1nc2c(F)cc(-c3nc(Nc4ccc([C@@H](C)C5CCN(CC(F)(F)F)CC5)cn4)ncc3F)cc2n1C(C)C

["100 to 500 nM", "100 to 500 nM", "100 to 500 nM", "500 to 1000 nM", "500 to 1000 nM"]

Required: IC50, one value per compound below.
1. CC[C@H](c1ccc(Nc2ncc(F)c(-c3cc(F)c4nc(C)n(C(C)C)c4c3)n2)nc1)N1CCN(C)CC1
2. Cc1nc2c(F)cc(-c3nc(Nc4ccc([C@H](O)C5CCN(C)CC5)cn4)ncc3F)cc2n1C(C)C
3. Cc1nc2c(F)cc(-c3nc(Nc4ccc(C=C5CCNCC5)cn4)ncc3F)cc2n1C(C)C
4. CCN1CCC(C(C)c2ccc(Nc3ncc(F)c(-c4cc(F)c5nc(C)n(C(C)C)c5c4)n3)nc2)CC1 (single isomer, unassigned) [Example 17]
5. Cc1nc2c(F)cc(-c3nc(Nc4ccc([C@H](C)C5CCN(C6CC6)CC5)cn4)ncc3F)cc2n1C(C)C

1. 10000 to 100000 nM
2. 100 to 500 nM
3. 500 to 1000 nM
4. 100 to 500 nM
5. 100 to 500 nM

Required: IC50, one value per compound below.
1. Cc1nc2c(F)cc(-c3nc(Nc4ccc(C=C5CCN(C6CC6)CC5)cn4)ncc3F)cc2n1C(C)C
2. C=C(c1ccc(Nc2ncc(F)c(-c3cc(F)c4nc(C)n(C(C)C)c4c3)n2)nc1)C1CCN(C)CC1
3. CC(=C1CCNCC1)c1ccc(Nc2ncc(F)c(-c3cc(F)c4nc(C)n(C(C)C)c4c3)n2)nc1

1. 100 to 500 nM
2. 100 to 500 nM
3. 500 to 1000 nM

Required: IC50, one value per compound below.
1. CCN1CCC([C@@H](OC)c2ccc(Nc3ncc(F)c(-c4cc(F)c5nc(C)n(C(C)C)c5c4)n3)nc2)CC1
2. CCN1CCC(C(C)c2ccc(Nc3ncc(F)c(-c4cc(F)c5nc(C)n(C(C)C)c5c4)n3)nc2)CC1 (single isomer, unassigned) [Example 18]
3. C=C(c1ccc(Nc2ncc(F)c(-c3cc(F)c4nc(C)n(C(C)C)c4c3)n2)nc1)C1CCNCC1

1: 100 to 500 nM; 2: 500 to 1000 nM; 3: 500 to 1000 nM
